Target: T1, corticotropin releasing factor 2 receptor
T1 sequence (Q13324 whole entry, species assumed, looked up): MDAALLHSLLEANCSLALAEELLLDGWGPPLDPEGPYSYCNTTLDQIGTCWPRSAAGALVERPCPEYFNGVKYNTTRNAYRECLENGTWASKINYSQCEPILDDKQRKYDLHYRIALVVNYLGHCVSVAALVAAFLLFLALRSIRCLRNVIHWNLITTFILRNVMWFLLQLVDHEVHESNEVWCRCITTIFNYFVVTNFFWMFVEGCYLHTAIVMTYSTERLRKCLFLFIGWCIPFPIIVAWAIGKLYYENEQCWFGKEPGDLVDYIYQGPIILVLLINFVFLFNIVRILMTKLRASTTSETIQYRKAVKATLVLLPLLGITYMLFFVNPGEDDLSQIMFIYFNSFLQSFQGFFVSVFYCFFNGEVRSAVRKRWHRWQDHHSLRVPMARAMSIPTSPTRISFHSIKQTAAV
Experiment: cell-based or functional assay
Ends that are not written are not given here.

- Binder: "ZGPPISIDLPIFLLRKMIEIEKQEKEKQQAANNALLLATI (C-terminal amide) [SEQ ID NO 298]"
  CRF2R EC50: "82 nM"
- Binder: "DNPSLSIDLPLILLRTLLELEKTQSQRERAEQNARIFDRV-NH2 [SEQ ID NO 337]"
  CRF2R EC50: "23.9 nM"
- Binder: "ZGPPISIDLPFQLLRKLIEIEKQEKEKQQAANNALLLATI (C-terminal amide) [SEQ ID NO 357]"
  CRF2R EC50: "6.44 nM"

Ref: patent US20030148956A1
